- TARGET: Prostaglandin E synthase (Homo sapiens, UniProt O14684)
- Sequence (O14684 whole entry): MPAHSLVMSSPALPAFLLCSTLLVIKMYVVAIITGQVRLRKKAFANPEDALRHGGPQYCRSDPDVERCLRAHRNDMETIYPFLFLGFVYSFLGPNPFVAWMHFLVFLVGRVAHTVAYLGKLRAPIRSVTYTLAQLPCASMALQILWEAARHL
- ASSAY_METHOD_TEXT: Inhibition of mPGES1 in human A549 cell microsomes
pIC50: −log10 of the molar value.

MOLECULE: CCCCCCCCCCCC1=C(O)C(=O)C=C(O)C1=O
TARGET: Prostaglandin E synthase (Homo sapiens, UniProt O14684)
pIC50: 6.70

====

- Test system: J774
- ASSAY_METHOD_TEXT: Inhibition of LPS-stimulated mPGES1 expression in mouse J774 cells
- Type: functional, cell-based
pIC50: −log10 of the molar value.

MOLECULE: COc1cc(C[C@@H]2COC(=O)[C@]2(O)Cc2ccc(O)c(OC)c2)ccc1O
pIC50: 4.85
